// data source = patent US20230212304A1

System: T1, cynomolgus monkey CTLA4-his protein (Acro biosystems, Cat#CT4-C5227) (cynomolgus monkey, UniProt G7PL88 36-161)
T1 construct: bought recombinant protein; also called Cynomolgus CTLA4-his; not shown: his tag
T1 sequence: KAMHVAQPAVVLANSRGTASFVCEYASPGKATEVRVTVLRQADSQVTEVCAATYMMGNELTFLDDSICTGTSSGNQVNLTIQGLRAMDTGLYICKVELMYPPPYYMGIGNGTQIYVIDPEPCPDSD
Assay Remarks: SPR, Biacore T200; antibody captured, CTLA4-his as analyte
Listing of recorded koff by entry.

# Binder, koff / s⁻¹
rows = [
    ("mouse anti-CTLA4 monoclonal antibody C1D1 (antibody, V domains shown, mouse mAb purified from hybridoma supernatant) VH: EVKLDETGGGLVQPGRPLKLSCVASGFTFSDNWMNWVRQSPEKGLEWVAQIRNKPYNYETYYSDSVKGRFTISRDDSKSSVYLQMNNLRVEDMGIYYCTGGMDYWGQGTSVTVSS VL: DIQMTQSPASLSASVGETVTITCGASEIIYGALNWYQQKQGKSPQLLIYGATNLADGMSSRFSGSGSGRQYSLKISSLHPDDAATYYCQKILSPPPWTFGGGTKLEIK", "8.76e-05"),
    ("mouse anti-CTLA4 monoclonal antibody D1G6 (antibody, V domains shown, mouse mAb purified from hybridoma supernatant) VH: EVQLQQSGPELVKPGASVKLSCKASGNTFTTYVLNWVKQKPGQGLEWIGYFNPYNDAIKYNEKFKGKATLTSDKSSSTAYMELSSLTSEDSAVYYCARFEGGGYAMDYWGQGTSVTVSS VL: DIVLTQSPASLAVSLGQRATISCRASQSVGTSSYSYIHWYQQKPGQPPKLLIKYASDLESGVPARFSGSGSGTDFTLNIHPVEEEDTATYYCQHSWEIPYTFGGGTKLEIK", 0.000662),
    ("mouse anti-CTLA4 monoclonal antibody D1B6 (antibody, V domains shown, mouse mAb purified from hybridoma supernatant) VH: EVQLQQSGPELVKPGASVKLSCKASGNTFTTYVLNWVKQKPGQGLEWIGYFNPYNDGIKYNEKFKGKATLTSDKSSNTAYMELSSLTSEDSAVYYCARFEGGGYAMDYWGQGTSVTVSS VL: DIVLTQSPASLAVSLGQRATISCRASQSVGTSRNTYIHWYQQKLGQPPKLLIKYASDLESGVPARFSGSGSGTDFTLNIHPVEEEDTATYYCQHSWEIPYTFGGGTKLEIK", 0.000787),
    ("mouse anti-CTLA4 monoclonal antibody D1D5 (antibody, V domains shown, mouse mAb purified from hybridoma supernatant) VH: EVKLVESGGGLVKPGGSLKLSCAASGFTFSDYGMAWVRQAPGKGPEWVAFISNLAYSVYYADTETGRFTISREDAKNTLYLEMSSLRSEDTAMYYCARSGLPYAMDYWGQGTSVTVSS VL: DIQMTQTTSSLSASLGDRVTISCRASQDISNYLNWYQQKPDGTVKLLIYYISRLHSGVPSRFSGSGSGTDFSLTISNLEQEDIATYFCQQGRMLPWTFGGGTRLEIK", 0.00047),
    ("mouse anti-CTLA4 monoclonal antibody D1B8 (antibody, V domains shown, mouse mAb purified from hybridoma supernatant) VH: QIQLQQSGPELVKPGASVKISCKASGYTFTDYYINWVKQRPGQGLEWIGWIYPGNNNTRYNEKFKGKATLTIDTSSSTAFMHLSSLTSEDSAVYFCARYYFDYWGQGTTLTVSS VL: DIQMTQSPSSLSASLGERISLTCRASQEITGYLSWLQQKPDGTIKRLIYAASTLDSGVPQRFSGSRSGSDYSLTISSLESEDFADYYCLQYASYPRTFGGGTKLEIK", 0.000532),
]
